- Target Of Assay: MASP-2 (CCP1-CCP2-SP) (Homo sapiens (Human), UniProt O00187)
- Sequence (O00187 445-686): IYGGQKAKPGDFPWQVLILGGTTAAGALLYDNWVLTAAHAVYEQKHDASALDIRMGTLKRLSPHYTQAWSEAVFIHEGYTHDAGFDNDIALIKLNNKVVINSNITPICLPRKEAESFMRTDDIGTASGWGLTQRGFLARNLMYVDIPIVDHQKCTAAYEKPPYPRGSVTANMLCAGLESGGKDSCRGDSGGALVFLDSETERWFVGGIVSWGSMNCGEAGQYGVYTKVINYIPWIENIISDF
- Protocol: biochemical
- Assay type: biochemical
pKi: −log10 of the molar value. Counter-ions that a name gives are not always drawn.
Measurement Type: pKi

Answered cases to consult:
> print(dat)
                                   compound                           target.of.assay  measurement.type  recorded.measurement
1  N=C(N)c1ccc2[nH]c(-c3ccccn3)nc2c1 [compound 2001, Dihydrochloride]  MASP-2 (CCP1-CCP2-SP) (Homo sapiens (Human), UniProt O00187)               pKi                < 4.60
2  C[C@H](NC(=O)[C@H]1C[C@H](c2ccccc2)CN1)C(=O)NCc1ccc2nccn2c1 [compound 1434, Dihydrochloride]  MASP-2 (CCP1-CCP2-SP) (Homo sapiens (Human), UniProt O00187)               pKi          4.60 to 5.00
3  CCCCCN[C@H](CCc1ccccc1)C(=O)N[C@@H](C)C(=O)NCc1ccc(N)nc1C [compound 1377, Di-trifluoroacetate salt]  MASP-2 (CCP1-CCP2-SP) (Homo sapiens (Human), UniProt O00187)               pKi          5.60 to 6.30
4  COC(=O)NC(=N)c1ccc(CNC(=O)[C@H](C)NC(=O)[C@H]2C[C@H](c3ccccc3)CN2)cc1 [compound 1258]  MASP-2 (CCP1-CCP2-SP) (Homo sapiens (Human), UniProt O00187)               pKi          5.00 to 5.60
5  C[C@H](NC(=O)[C@H](N)CCc1ccccc1)C(=O)NCc1cc(Cl)ccc1OCC(=O)NCCCO [compound 1237]  MASP-2 (CCP1-CCP2-SP) (Homo sapiens (Human), UniProt O00187)               pKi          4.60 to 5.00

Consider the additional compound presented here.
Input C[C@H](NC(=O)[C@H]1C[C@H](c2ccccc2)CN1)C(=O)NCc1cc(Cl)ccc1NS(C)(=O)=O [compound 1274] , output reported pKi.
5.00 to 5.60
